- Procedure Details: Agilent ZORBAX 300 SB-C18, 150 × 1 mm, 3.5 µm; A: water + 0.01% heptafluorobutyric acid; B: acetonitrile + 0.01% heptafluorobutyric acid; gradient (min/%B) 0/0 100/90
- Condition Info: stereoisomer not certain
We begin with a simple list: items and their reported LC retention time.

| Compound | LC retention time (min) |
| --- | --- |
| CC1(C)CC(O)N=C1c1ccccc1 (centres undefined) | 8.25 |
| Nc1ccc(C(=O)N2CCC(c3ccccc3)C2)cc1 (centres undefined) | 11 |
| CN1CCC23c4c5ccc(OC6OC(C(=O)O)C(O)C(O)C6O)c4OC2C(O)C=CC3C1C5 (centres undefined) | 6.59 |
| C1=Nc2ccccc2C(c2ccccc2)C1c1ccc2ccccc2n1 (centres undefined) | 11.8 |
| COc1cccc(OC)c1C(=O)C=Cc1ccccc1 | 14.7 |
| c1ccc(-c2ccc3ccccc3n2)nc1 | 11.3 |
| Nc1cccnc1N | 6.18 |
| COC1=CC(=O)C(=O)C=C1OC | 7.13 |
| O=c1ccoc2ccccc12 | 9.31 |
| c1csc(CN2CCNCC2)c1 | 7.6 |
| Cc1[nH]c(C)c(C=O)c1C=O | 7.42 |
| CCCCCCCCCC[N+](C)(C)C | 12.3 |
| NC1Cc2ccccc2NC1=O (centres undefined) | 7.26 |
| COc1cc(C=CC(=O)c2ccc3c(c2)OCO3)cc(OC)c1OC | 14.7 |
| CCCC(=O)Nc1cccc(C(=O)Nc2ccc(C(=O)O)cc2)c1 | 10.5 |
| CN1CCN(C(=O)c2nn(C)c(=O)c3ccccc23)CC1 | 7.52 |
| CNC(=S)NNC(=O)Cc1cccc2ccccc12 | 10.3 |
| Cc1ccc(-c2nc(-c3c[nH]c4ccccc34)[nH]c2-c2ccc(C)cc2)cc1 | 13.7 |
| Cc1cc(C(=O)O)c(C)n1CCc1c[nH]c2ccccc12 | 12.5 |
| CCC(=O)c1ccc2c(c1)N(CC(C)N(C)C)c1ccccc1S2 (centres undefined) | 11.8 |
| c1ccc(Cc2nn[nH]n2)cc1 | 8.45 |
| CN1CCN(c2nc(N)cc(=O)[nH]2)CC1 | 5.8 |
| CN(C)CCNC1=CC(=O)CC(c2ccccc2)C1 (centres undefined) | 8.55 |
| CCCC(N)=O | 4.71 |
| Cn1cc(C(=O)O)c2ccccc21 | 9.81 |
| COc1ccc(-c2cc(=O)c3cc(C)cc(C)c3o2)cc1OC | 15.2 |
| Cc1ccc(C(C)C)c(OCCN)c1 | 10.2 |
| CC(=O)c1cccc(N2C(=O)C3CCCCC3C2=O)c1 (centres undefined) | 12 |
| CN1C(=O)C2CN(CCc3ccccc3)CNC2N(C)C1=O (centres undefined) | 8.29 |
| CC(C)CC(C)N (centres undefined) | 7.77 |
| NCCCNCCNCCCN | 7.73 |
| OCc1cccnc1 | 4.28 |
| CN(C)CCC(=O)c1ccc2ccccc2c1 | 9.4 |
| CC(=O)NCC(NC(C)=O)C(C)(C)C (centres undefined) | 7.28 |
| COc1ccc(N2CC(C(=O)N3CCC(Cc4ccccc4)CC3)CC2=O)cc1 (centres undefined) | 14.5 |
| Cc1cccc(CN2CCN(C(=O)CC(C)C)CC2)c1 | 9.36 |
| CCCCCCCCN | 10.2 |
| Cc1ccc2ccc3ccc(C)nc3c2n1 | 8.67 |
| CCN(C(C)C)C(C)C | 7.51 |

* * *

- Procedure Details: Agilent ZORBAX 300 SB-C18, 150 × 1 mm, 3.5 µm; A: water + 0.01% heptafluorobutyric acid; B: acetonitrile + 0.01% heptafluorobutyric acid; gradient (min/%B) 0/0 100/90
- Condition Info: stereoisomer not certain

| Compound | LC retention time / min |
| --- | --- |
| c1cc2c(cc1NC1=NCCCCC1)OCCO2 | 9.12 |
| Cn1c(=O)cc(O)c2ccccc21 | 9.12 |
| CCNCC(=O)Nc1c(C)cccc1C | 8.77 |
| CC(N)C(=O)Nc1ccc2ccccc2c1 (stereo unspecified) | 9.02 |
| CC12CCC(O)CC1=CCC1C2CCC2(C)C(N)CCC12 (stereo unspecified) | 8.88 |
| CN(C)C(=O)c1ccccc1 | 8.98 |
| O=Cc1cccc2ncccc12 | 8.73 |
| c1ccc(CCN(Cc2ccncc2)Cc2ccccn2)cc1 | 8.96 |
| COC(=O)Cn1c(=O)n(C)c2c(=O)n(C)c(=O)n(C)c21 | 8.93 |
| c1ccc(Nc2ncnc3nc[nH]c23)cc1 | 8.8 |
| O=C(O)CC(NC(=O)OCc1ccccc1)C(=O)O (stereo unspecified) | 9.01 |

* * *

- Procedure Details: Agilent ZORBAX 300 SB-C18, 150 × 1 mm, 3.5 µm; A: water + 0.01% heptafluorobutyric acid; B: acetonitrile + 0.01% heptafluorobutyric acid; gradient (min/%B) 0/0 100/90
- Condition Info: stereoisomer not certain
Metric: LC retention time (min)

| Molecule | Metric | Units Of Measure | Readout Value |
| --- | --- | --- | --- |
| Nc1ccc(C=C(C(=O)O)c2ccccc2)cc1 | LC retention time | min | 9.96 |
| CCC(N)CC | LC retention time | min | 7.05 |
| c1cc(C2=NC(c3ccncc3)C(c3ccncc3)N2)ccn1 (stereo not given) | LC retention time | min | 7.12 |
| O=C1NCCc2c1[nH]c1ccccc21 | LC retention time | min | 10.1 |
| O=C(NN=Cc1ccc(O)c(O)c1)c1ccc(NC(=O)c2ccccc2)cc1 | LC retention time | min | 10.2 |

* * *

- Procedure Details: Agilent ZORBAX 300 SB-C18, 150 × 1 mm, 3.5 µm; A: water + 0.01% heptafluorobutyric acid; B: acetonitrile + 0.01% heptafluorobutyric acid; gradient (min/%B) 0/0 100/90
- Condition Info: stereoisomer not certain

| Compound | LC retention time |
| --- | --- |
| CC(C)(C)c1ccc(C(=O)NCc2ccccc2)o1 | 14.8 min |
| CCCCCCCNC(=O)c1ccc(OC(C)=O)cc1 | 14.9 min |
| Cc1ccc(CN2C(=O)CCC2=O)o1 | 9.52 min |
| COc1ccc2c(c1O)-c1cccc3c1C(C2)N(C)CC3 (stereo not drawn) | 9.69 min |
| O=C1CC2(CCCC2)CC(=O)N1CCCCN1CCN(c2ncccn2)CC1 | 10.2 min |
| NC(=O)CNC(=O)c1ccc2ccccc2n1 | 8.66 min |
| CC(=NNC(=O)CNC(=O)C(c1ccccc1)c1ccccc1)c1ccc(N(C)C)cc1 | 13.9 min |
| c1ccc(N2CCNCC2)cc1 | 8 min |

* * *

- Procedure Details: Agilent ZORBAX 300 SB-C18, 150 × 1 mm, 3.5 µm; A: water + 0.01% heptafluorobutyric acid; B: acetonitrile + 0.01% heptafluorobutyric acid; gradient (min/%B) 0/0 100/90
- Condition Info: stereoisomer not certain
Label Met when LC retention time is strictly below 10 min; otherwise label Not met.

| Compound | Class Label |
| --- | --- |
| NC1CCCCC1N (stereo not drawn) | Met |
| CN(C)CCN(C)CCN(C)C | Met |
| Cn1c(-c2c(-c3ccc4ccccc4n3)cnc3ccccc23)nc2ccccc21 | Not met |
| CNC(=O)NC | Met |
| CN(C)CCO | Met |
| Cc1ccsc1C=CC(=O)c1ccc2ccccc2c1 | Not met |
| CCOC(=O)C=CC(=O)NNC(=O)C(c1ccccc1)c1ccccc1 | Not met |
| Cc1cc(-c2noc(-c3ccco3)n2)c2ccccc2n1 | Not met |
| CCC1(c2ccccc2)CCC(=O)NC1=O (stereo not drawn) | Not met |
| Cc1ccc(-c2cc(C(=O)O)c3ccccc3n2)cc1C | Not met |
| COc1ccc2c(=O)cc(-c3ccccc3)oc2c1OC | Not met |
| CC(=O)Oc1ccc(-c2cnc3ccccc3n2)cc1 | Not met |

* * *

LC retention time overview
- Procedure Details: Agilent ZORBAX 300 SB-C18, 150 × 1 mm, 3.5 µm; A: water + 0.01% heptafluorobutyric acid; B: acetonitrile + 0.01% heptafluorobutyric acid; gradient (min/%B) 0/0 100/90
- Condition Info: stereoisomer not certain

| Compound | Units Of Measure | LC retention time |
| --- | --- | --- |
| O=C(O)CC(C(=O)O)c1c[nH]c2ccccc12 (configuration not stated) | min | 8.46 |
| NCC(=O)c1ccccc1 | min | 7.35 |
| OCc1ccccc1CN1CCCC1 | min | 7.7 |
| NCC1CCCCN1 (configuration not stated) | min | 6.88 |
| NCCN1CCCCC1 | min | 6.98 |
| CC1C2=C(CC(C)(C)CC2=O)NC2=C1C(=O)CC(C)(C)C2 | min | 10.9 |
| S=C(Nc1cccnc1)NC1CCCc2ccccc21 (configuration not stated) | min | 11 |
| CN(C)c1ccc(C=NNC(=O)Cc2n[nH]c(=O)[nH]c2=O)cc1 | min | 8.47 |
| CC(=O)CNC(C)(C)C | min | 6.35 |
| COc1cc(CNC(=O)Nc2ccccc2)cc(OC)c1OC | min | 11.3 |
| Cc1cc(C)c2c(O)c(Cc3ccccc3)c(=O)[nH]c2c1 | min | 12.6 |
| COC(=O)COC(=O)c1ccccc1NC(=O)c1ccccc1 | min | 15.1 |
| CN(C)CC(C)(C)CO | min | 6.43 |
| CN(C)CCOC(c1ccccc1)c1ccccc1 | min | 10.9 |
| NNc1cccc2ncccc12 | min | 8.48 |
| Cn1cccc1C=NNC(=O)CCCC(=O)NN=Cc1cccn1C | min | 10.2 |
| CSC1=NCCN1 | min | 5.98 |
| COC(=O)c1ccc(NC(=O)CC(=O)Nc2ccc(C(=O)OC)cc2)cc1 | min | 12.2 |
| CN(C)CCC(C)(O)Cc1ccccc1 (configuration not stated) | min | 8.38 |
| CC(=O)N1CCC(C2CCNCC2)CC1 | min | 7 |
| Cc1ccc(C=NNC(=O)C(=O)NC(C)C)o1 | min | 9.79 |
| NCCc1csc2c1CCCC2 | min | 9.41 |
| Cc1cccc(N)c1C | min | 8.05 |
| Cc1cc(O)c(C(C)C)cc1NC(=O)Cn1nc(C)c2ccccc2c1=O | min | 11.9 |
| Cc1[nH]c(=S)[nH]c1-c1ccccc1 | min | 9.06 |
| CN(CCO)C(=O)Nc1ccccc1 | min | 7.92 |
| COc1ccc(C=Cc2nc(=O)c3ccccc3o2)cc1 | min | 13.8 |
| COc1ccc(CN(CCN(C)C)c2ccccn2)cc1 | min | 10.1 |
| COc1cccc2c1NC(C)(C)CC2C (configuration not stated) | min | 12.3 |
| CC(=O)Nc1ccc(O)c(NC(C)=O)c1 | min | 6.39 |
| NCc1ccc2ncccc2c1 | min | 7.05 |
| Nc1cccc2c1C(=O)c1cccc(N)c1C2=O | min | 12.6 |
| CC(C)(C)C(=N)C(C)(C)C | min | 8.06 |
| COc1ccc(C(CNC(=O)c2n[nH]c(=O)c3ccccc23)Cc2ccccc2)cc1OC (configuration not stated) | min | 13.3 |
| CCCNC(C)C(=O)Nc1c(C)csc1C(=O)OC (configuration not stated) | min | 9.27 |
| CCCCCCC=CC(C)=O | min | 16.2 |
| Cc1[nH]c2ccccc2c1Cc1nc2ccccc2[nH]1 | min | 9.93 |
| Cc1ccc(C)n1-c1cccc(C(=O)O)c1 | min | 12.9 |
| c1ccc(CN(c2ccccn2)c2ccccn2)cc1 | min | 11 |
| COc1ccc(C=NNC(N)=O)c(OC)c1 | min | 9.56 |
| CC(c1ccccc1)N1CNc2c(c(=O)[nH]c(=O)n2Cc2ccccc2)C1 (configuration not stated) | min | 9.33 |
| O=C(CC1NC(=O)N(C2CCCCC2)C1=O)Nc1cccnc1 (configuration not stated) | min | 9.1 |

Where do the numbers come from? From the RepoRT retention time repository.
